System: VA-ES-BJ
Assay: relative viability vs DMSO control (72 h) (fraction); higher = more viable cells
Details: 10 µM
# if measured relative viability < 0.8: 1  # else: -1

structure-string: CCCS(=O)(=O)Nc1ccc(F)c(C(=O)c2c[nH]c3ncc(-c4ccc(Cl)cc4)cc23)c1F
class-assignment: 1
//
structure-string: Nc1cc(C(F)(F)F)c(-c2cc(N3CCOCC3)nc(N3CCOCC3)n2)cn1
class-assignment: 1
//
structure-string: C[C@@H](c1ccc2nccn2c1)n1nnc2ncc(-c3cnn(C)c3)nc21
class-assignment: -1

Lab log: compare recorded relative viability with 0.8; is it strictly lower for C=CC(=O)Nc1cccc(Oc2nc(Nc3ccc(N4CCN(C)CC4)cc3)nc3ccsc23)c1 ?
1

Where do these numbers come from? They come from the supplement of paper PMC10883282.
